System: NRG-mice bearing LNCaP tumors
Assay: Biodistribution (and PET/SPECT imaging) in NRG-mice bearing LNCaP tumors
Assay type: in vivo
Conditions: 24 h p.i., Avg
*1 amine or outer side, *2 acyl side, *3 side chain or, on linkers, in order; H or OH if unused. Where a SMILES comes first, the peptide text is derived from it. [ ]: non-standard residue; d: D form. The star is where a group is joined. ξ: configuration not given here. ξLys(Nα-CO-ξAad) = O=C(O)CCCC(NC(=O)NC(CCCCN*)C(=O)O)C(=O)O; Butanoyl(4-(4-NO2Ph)) = O=C(CCCc1ccc([N+](=O)[O-])cc1)*; DOTA = O=C(O)CN1CCN(CC(=O)O)CCN(CC(=O)*)CCN(CC(=O)O)CC1; Butanoyl(4-(4-MeO-phenyl)) = COc1ccc(CCCC(=O)*)cc1; ξAla(9-anthryl) = NC(Cc1c2ccccc2cc2ccccc12)C(=O)O; X2 = O=C(NC(CCCCN*)C(=O)O)NC(CC(F)C(=O)O)C(=O)O; X1 = O=C(C1CCC(CN[*:1])CC1)[*:2]; ξK = NCCCCC(N)C(=O)O
REPORTED METRIC: Biodistribution: Liver (% ID/g)
Numbers only; they are read as % ID/g.

1) COc1ccc(CCCC(=O)NCC(=O)NC(CCCCNC(=O)CN2CCN(CC(=O)[O-])CCN(CC(=O)[O-])CCN(CC(=O)[O-])CC2)C(=O)NCC(=O)NCC2CCC(C(=O)NC(Cc3c4ccccc4cc4ccccc34)C(=O)NCCCCC(NC(=O)NC(CC(F)C(=O)O)C(=O)O)C(=O)O)CC2)cc1.[177Lu+3] (centres unmarked) [^177Lu-CCZ02008] ({Butanoyl(4-(4-MeO-phenyl))}-G[ξK](DOTA)G[X1][ξAla(9-anthryl)]-X2) | 1.16
2) O=C([O-])CN1CCN(CC(=O)[O-])CCN(CC(=O)NCCCCC(NC(=O)CNC(=O)CCCc2ccc([N+](=O)[O-])cc2)C(=O)NCC(=O)NCC2CCC(C(=O)NC(Cc3c4ccccc4cc4ccccc34)C(=O)NCCCCC(NC(=O)NC(CCCC(=O)O)C(=O)O)C(=O)O)CC2)CCN(CC(=O)[O-])CC1.[225Ac+3] (centres unmarked) [^225Ac-CCZ02017] ({Butanoyl(4-(4-NO2Ph))}-G[ξK](DOTA)G[X1][ξAla(9-anthryl)]-{ξLys(Nα-CO-ξAad)}) | 0.68
3) COc1ccc(CCCC(=O)NCC(=O)NC(CCCCNC(=O)CN2CCN(CC(=O)[O-])CCN(CC(=O)[O-])CCN(CC(=O)[O-])CC2)CC(=O)NCC2CCC(C(=O)NC(Cc3c4ccccc4cc4ccccc34)C(=O)NCCCCC(NC(=O)NC(CC(F)C(=O)O)C(=O)O)C(=O)O)CC2)cc1.[177Lu+3] (centres unmarked) [^177Lu-CCZ02019] | 0.48
4) O=C([O-])CN1CCN(CC(=O)[O-])CCN(CC(=O)NCCCCC(NC(=O)CNC(=O)CCCc2ccc([N+](=O)[O-])cc2)C(=O)NCC(=O)NCC2CCC(C(=O)NC(Cc3c4ccccc4cc4ccccc34)C(=O)NCCCCC(NC(=O)NC(CCCC(=O)O)C(=O)O)C(=O)O)CC2)CCN(CC(=O)[O-])CC1.[177Lu+3] (centres unmarked) [^177Lu-CCZ02017] ({Butanoyl(4-(4-NO2Ph))}-G[ξK](DOTA)G[X1][ξAla(9-anthryl)]-{ξLys(Nα-CO-ξAad)}) | 0.31

Here is the next item to consider.
(Q) Look up Biodistribution: Liver: COc1ccc(CCCC(=O)NCC(=O)NC(CCCCNC(=O)CN2CCN(CC(=O)[O-])CCN(CC(=O)[O-])CCN(CC(=O)[O-])CC2)C(=O)NCC2CCC(C(=O)NC(Cc3c4ccccc4cc4ccccc34)C(=O)NCCCCC(NC(=O)NC(CCCC(=O)O)C(=O)O)C(=O)O)CC2)cc1.[177Lu+3] (centres unmarked) [^177Lu-HTK03170, reference compound]
(A) 0.49
